SYSTEM_NAME: Cholinesterase (Equus caballus)
Sequence (P81908 whole entry): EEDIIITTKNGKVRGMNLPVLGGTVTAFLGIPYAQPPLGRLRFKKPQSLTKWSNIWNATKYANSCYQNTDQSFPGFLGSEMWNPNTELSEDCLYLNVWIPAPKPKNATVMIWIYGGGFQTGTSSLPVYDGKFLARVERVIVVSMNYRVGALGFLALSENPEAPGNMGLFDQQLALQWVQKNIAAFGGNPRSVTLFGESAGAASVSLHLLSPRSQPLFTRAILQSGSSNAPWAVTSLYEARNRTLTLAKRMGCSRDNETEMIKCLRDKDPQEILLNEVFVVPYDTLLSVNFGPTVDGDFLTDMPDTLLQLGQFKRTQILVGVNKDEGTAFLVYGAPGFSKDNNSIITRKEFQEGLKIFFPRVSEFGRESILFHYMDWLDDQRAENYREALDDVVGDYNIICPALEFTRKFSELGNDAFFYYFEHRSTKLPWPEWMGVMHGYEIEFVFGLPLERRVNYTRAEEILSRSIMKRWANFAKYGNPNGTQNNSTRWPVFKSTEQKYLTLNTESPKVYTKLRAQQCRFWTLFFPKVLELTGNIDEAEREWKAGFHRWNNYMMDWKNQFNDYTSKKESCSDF
EXPERIMENT_DESCRIPTION: Inhibition of equine serum BChE using ATC iodide substrate by DTNB based assay
STATED_CONDITIONS: read-out: IC50
Give pIC50 for every item shown.
Please keep in mind that pIC50 is minus log10 of the molar concentration; only the number is needed.

Look up pIC50 for this compound: `COc1cccc(NC(=O)Oc2ccc3c(c2)C(=O)N2CCCN=C2N3C)c1`
4.28

Can you look up the measured pIC50 of `CC(C)c1ccc(NC(=O)Oc2ccc3nc4n(c(=O)c3c2)CCCN4C)cc1` for me?
4.75

What does the record list as pIC50 for `CC(C)c1ccc(NC(=O)Oc2ccc3c(c2)C(=O)N2CCCN=C2N3C)cc1` ?
5.49

Param item = `CC(C)c1ccc(NC(=O)Oc2ccc3nc4n(c(=O)c3c2)CCCN4CCCN2CCCCC2)cc1` ; retrieve measured pIC50.
6.60

pIC50 lookup needed for `CCCCNC(=O)Oc1ccc2c(c1)CN1CCCN(C)C1=N2` , thanks.
5.87
